Cited source: patent US20210196796A1

This listing pairs binders with measured Relative Proliferation Fold Change NKL 1:50.
targetEntity: T1, orthogonal hCD122 receptor (hoRb), hCD122 with H133D and Y134F (human, UniProt P14784 27-550); further: reference of the scale not given here
T1 sequence: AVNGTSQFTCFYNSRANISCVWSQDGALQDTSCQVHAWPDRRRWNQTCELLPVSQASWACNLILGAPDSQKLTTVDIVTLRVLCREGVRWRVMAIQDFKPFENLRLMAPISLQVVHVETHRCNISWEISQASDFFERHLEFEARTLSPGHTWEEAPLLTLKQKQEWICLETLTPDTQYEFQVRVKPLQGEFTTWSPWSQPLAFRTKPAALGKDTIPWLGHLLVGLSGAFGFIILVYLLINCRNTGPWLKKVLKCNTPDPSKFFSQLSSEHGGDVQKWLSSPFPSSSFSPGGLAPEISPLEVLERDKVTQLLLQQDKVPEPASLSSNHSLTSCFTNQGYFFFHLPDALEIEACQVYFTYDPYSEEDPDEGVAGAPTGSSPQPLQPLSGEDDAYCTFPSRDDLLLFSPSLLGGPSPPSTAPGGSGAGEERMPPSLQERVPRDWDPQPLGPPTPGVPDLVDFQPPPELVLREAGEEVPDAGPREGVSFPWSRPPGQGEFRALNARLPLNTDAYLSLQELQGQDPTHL
protocolNotes: cell-based or functional assay

In the examples that follow, each entry is paired with its recorded Relative Proliferation Fold Change NKL 1:50.
>  <binder>
SQVLKY (ligand) APTSSSTKKTQLQLSQLLVLLKYILNGINNYKNPKLTRMLTFKFYMPKKATELKHLQCLEEELKPLEEVLNLAQSKNFHLRPRDLISNINVIVLELKGSETTFMCEYADETATIVEFLNRWITFCQSIISTLT

>  <result>
1.38 fold

$$$$
>  <binder>
L18G, SQVLKA (ligand) APTSSSTKKTQLQLSQLGVLLKAILNGINNYKNPKLTRMLTFKFYMPKKATELKHLQCLEEELKPLEEVLNLAQSKNFHLRPRDLISNINVIVLELKGSETTFMCEYADETATIVEFLNRWITFCQSIISTLT

>  <result>
0.57 fold

$$$$
>  <binder>
L18D, SQVLKA (ligand) APTSSSTKKTQLQLSQLDVLLKAILNGINNYKNPKLTRMLTFKFYMPKKATELKHLQCLEEELKPLEEVLNLAQSKNFHLRPRDLISNINVIVLELKGSETTFMCEYADETATIVEFLNRWITFCQSIISTLT

>  <result>
0.56 fold

$$$$

Req: Need Relative Proliferation Fold Change NKL 1:50, item M39L, SQVLKA (ligand) APTSSSTKKTQLQLSQLLVLLKAILNGINNYKNPKLTRLLTFKFYMPKKATELKHLQCLEEELKPLEEVLNLAQSKNFHLRPRDLISNINVIVLELKGSETTFMCEYADETATIVEFLNRWITFCQSIISTLT
Resp: 1.49 fold

Req: Can you check Q126H, SQVLKA (ligand) APTSSSTKKTQLQLSQLLVLLKAILNGINNYKNPKLTRMLTFKFYMPKKATELKHLQCLEEELKPLEEVLNLAQSKNFHLRPRDLISNINVIVLELKGSETTFMCEYADETATIVEFLNRWITFCHSIISTLT next?
Resp: 1.09 fold
